# System: Trypanosoma cruzi
# assay.comment: Antiprotozoal activity against trypomastigotes form of Trypanosoma cruzi Y at 250 ug/ml after 24 hrs
# Format: functional
Would you kindly list Activity for each of these compounds?
Numbers only, in %.

# compound, measured.number
records = [
    ("COc1cccc2c1-c1c3c(c(OC)c4c1[C@@H](C2)NCC4)OCO3", 35.7),
    ("CN(C)c1ccc(C(=C2C=CC(=[N+](C)C)C=C2)c2ccc(N(C)C)cc2)cc1.[Cl-]", 100),
    ("COc1cccc2c1-c1c3c(c(OC)c4ccnc(c14)C2=O)OCO3", 46.6),
    ("COc1cc2c(cc1O)C[C@H]1c3cc(O)c(OC)cc3CCN1C2", 0),
    ("COc1c(O)c(OC)c2c3c1CCN=C3C(C)(O)c1cc(O)ccc1-2 (stereo not given)", 92),
    ("COc1c2c3c(c4c1OCO4)-c1ccc(O)cc1C(C)(O)C3=NCC2 (stereo not given)", 0),
    ("COc1c2c3c(c4c1OCO4)-c1c(O)cccc1C[C@H]3NCC2", 0),
    ("COc1c(O)c2c3c(c1OC)-c1ccccc1C[C@H]3NCC2", 68.2),
    ("COc1c(O)cc(CCN(C)C)c2ccc3ccccc3c12", 81.3),
]

// below: Activity requested for another compound
Entry COc1c(O)c2c3c(c1OC)-c1ccc(O)cc1C[C@@H]3NCC2 : Activity on Trypanosoma cruzi = 2.55
